# test system: the molecule itself
# assay protocol: size-exclusion chromatography, self-association (homodimer)
outcome measure: binding result

JIc (designed binder, Designed homodimer subunit, after TEV cleavage) SGSSEELARESAEAAWRLAQAATRLVLALIRGDLKEVAEALIELARAVQELARVAKEYGNDELAKTAAWLAAHVAMLAIYVLIRAIKEGDDEVRELAKTAIKLASTAAKIVLDALPTAEEVRQITLLAKLAEEAADKKNEDSALAVGIAAIAVLIALLALEAAQKAGIEEAEKGARLLLKLAMDAARKKNPEEALAVLNAALDVSIALRLLQSAKRAGSEETRKLAEEMLRQALERARK = binds
D2O (designed binder, Designed homodimer subunit, after TEV cleavage) SGSGSEEEEIRLAQLAIQIIQYQVEKNGDEQLLRLIQEITEQLQKEGDERLIRILLAMFAIILILEHVEKNGDEELLRLIQEITEKLARQGDERLIRILIAMAGIIWILELVKKNGDEQLLRLIREITRKLAEEGDERLIQILLAMHAIIISSEQLEKNGDEELLQKLRELLEKIAKE = binds
tj79C2-H125A (designed binder, Designed homodimer subunit, after TEV cleavage) SGSGSREDELWARYTLLLAELAAERADIAAERTGDPRVRELARELKRLAQEAAEEVKRDPSSSDVYLALILIVMAIYMAVLALEAAERTGDPEVRELARELVRLAVEAAEEVQRNPSSSDVNKALLLIVHAIMAAVAALEAAERTGDPEVRELARELVRLAVEAAEEVQRNPSSKEVDMALLLIQIAILEAVLSLLRAERSGDPEKREKARERVREAVERAEEVQRDPSGW = binds
D2L (designed binder, Designed homodimer subunit, after TEV cleavage) SGSGSREKELKQLISNLQILLLILLSEDPNNELVRKLQEKIKEAEEQGDPRRLKLIWWILNLIQMLQQLEQEDPNNELVKRLKELIKRALEEGDPRLLLLIHIILALIWLLQALEKEDPNNELVKRLKKLIEEALKEGDPRKLIQIALLLTWIATIQRLKKQDPNNELIKRAEETLEQSLKT = binds
D13_H11B (designed binder, Designed homodimer subunit, after TEV cleavage) SGSGSEEKEWQAMTAHLIYAIKILKEMLEEDPNDEEIKKILELLWQISKTQQDDPHNEEQKEWLILLLIIILALRLVQEMLKEDPNDEEIEKILELLKQILRTLREDPHNEEQKEWLSLLFIIIALLDSVQEMLKEDPNDEEIEKILELLKQILRTLREDPHNEEQKQWLIQLINALILLLFIQEKLKEDPNDEEAEEELERLKEQLRRLRE = binds

// fetch binding result given entry D2R (designed binder, Designed homodimer subunit, after TEV cleavage) SGSGSEEEELKRLQTLIKYLQLLIQNAKWQNPDDELLRQVEELIEEMKKRLEENPNSQEDQALLKLLITIIALIIMILWLKSENPDDELLRQVEELIKEMIERLKENPNSQEDQALLQLLHAILGLILLIQQLKKQNPDDELLQQVEELIEEMIKRLKENPNSEKDQILLSFLALSLLSIFLIQTQKKQNPDDERLKQWEKQIKESIESSKE
binds
